# self-splicing fitness (ln) listing for each entry below
- method: self-splicing fitness, log relative to wild type (ln ratio); higher = more splicing; Tetrahymena group I intron in knt gene, E. coli kanamycin selection, DiMSum; sequences stand for … in CUCUCU…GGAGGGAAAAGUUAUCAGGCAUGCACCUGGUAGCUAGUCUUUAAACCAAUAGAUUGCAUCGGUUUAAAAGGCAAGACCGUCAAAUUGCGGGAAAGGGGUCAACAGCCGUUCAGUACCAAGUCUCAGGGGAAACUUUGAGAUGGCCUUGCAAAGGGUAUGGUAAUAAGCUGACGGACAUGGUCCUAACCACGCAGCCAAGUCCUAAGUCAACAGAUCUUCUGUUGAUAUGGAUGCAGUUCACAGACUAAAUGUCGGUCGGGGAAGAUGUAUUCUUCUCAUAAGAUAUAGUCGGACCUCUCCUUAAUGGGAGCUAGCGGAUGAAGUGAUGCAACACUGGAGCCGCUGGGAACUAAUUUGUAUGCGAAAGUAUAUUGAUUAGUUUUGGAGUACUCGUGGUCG;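 also: selection with 25 µg/mL kanamycin versus none on LB agar overnight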
- experimental.setup: 37 °C

# macromolecule.sequence, self-splicing fitness (ln)
data = [
    ("UUAUAGCAAUAUUACGUUCU", -1.11),
    ("GAUUAGCAAUAUUACGAUGU", -0.611),
    ("CUAUAGCAAUAUUACGAUGG", -1.18),
    ("UUUCAGCAAUAUUACGUGCA", 0.0542),
    ("GUUGAGCAAUAUUACGGGAU", -1.96),
]

Query string: Could you share which self-splicing fitness (ln) value was measured for UUGUAGCAAUAUUACGUCGA ?
Result string: -0.226

Query string: Could you share which self-splicing fitness (ln) value was measured for GCACAGCAAUAUUACGGCUA ?
Result string: -0.393
